- PROTOCOL NOTES: Plasma pharmacokinetics of ESK-440 and metabolite CEP-38901
- Assay type: in vivo, human
- MEASUREMENT SETUP: human, plasma, oral, 250 mg/day, AUC0-t, Day 1, 250 mg/day (N = 4)
METRIC: AUC(0-t)
The reply should consist of the numeric value with the unit placed after it.

**Q:** Fill in the blank: the reported AUC(0-t) of `CNC(=O)c1ccccc1Nc1nc(Nc2ccc3c(c2OC)CCC[C@H](N2CCN(CCO)CC2)C3)ncc1Cl` is ____.
**A:** 4850 ng·h/mL

* * *

- PROTOCOL NOTES: Plasma pharmacokinetics of ESK-440 and metabolite CEP-38901
- Type: in vivo, human
- MEASUREMENT SETUP: human, plasma, oral, 100 mg/day, tmax, Day 15, 100 mg/day (N = 3), median (range)
METRIC: Tmax

**Q:** I am curious: what Tmax value has been reported for CNC(=O)c1ccccc1Nc1nc(Nc2ccc3c(c2OC)CCC[C@H](N2CCN(CCO)CC2)C3)ncc1Cl [ESK-440] ?
**A:** 4 h

* * *

- PROTOCOL NOTES: Plasma pharmacokinetics of ESK-440 and metabolite CEP-38901
- Assay type: in vivo, human
- MEASUREMENT SETUP: human, plasma, oral, 150 mg/day, Cmax, Day 1, 150 mg/day (N = 3)
METRIC: Cmax (ng/mL)
API: value field is a number in ng/mL; no unit string.

**Q:** State the recorded Cmax for this entry: `CNC(=O)c1ccccc1Nc1nc(Nc2ccc3c(c2OC)CCC[C@H](N2CCN(CCO)CC2)C3)ncc1Cl`
**A:** 128

* * *

- PROTOCOL NOTES: Plasma pharmacokinetics of ESK-440 and metabolite CEP-38901
- Type: in vivo, human
- MEASUREMENT SETUP: human, plasma, oral, 250 mg/day, tmax, Day 15, 250 mg/day (N = 4), median (range)
METRIC: Tmax
Please state the number and follow it with the unit.

**Q:** // Tmax lookup, key: `CNC(=O)c1ccccc1Nc1nc(Nc2ccc3c(c2OC)CCC[C@H](N2CCN(CCO)CC2)C3)ncc1Cl`
**A:** 3.5 h

* * *

- PROTOCOL NOTES: Plasma pharmacokinetics of ESK-440 and metabolite CEP-38901
- Type: in vivo, human
- MEASUREMENT SETUP: human, plasma, oral, 700 mg/day, AUC0-24, Day 1, 700 mg/day (N = 5)
METRIC: AUC(0-t)
Reply with the number, then its unit.

**Q:** Data request, read-out AUC(0-t), for CNC(=O)c1ccccc1Nc1nc(Nc2ccc3c(c2OC)CCC[C@H](N2CCN(CCO)CC2)C3)ncc1Cl [ESK-440]
**A:** 11300 ng·h/mL

* * *

- PROTOCOL NOTES: Plasma pharmacokinetics of ESK-440 and metabolite CEP-38901
- Assay type: in vivo, human
- MEASUREMENT SETUP: human, plasma, oral, 700 mg/day, Cmax, Day 1, 700 mg/day (N = 5)
METRIC: Cmax
Remember to quote the unit after the number.

**Q:** Can you share its Cmax? I mean this compound: `CNC(=O)c1ccccc1Nc1nc(Nc2ccc3c(c2OC)CCC[C@H](N2CCN(CCO)CC2)C3)ncc1Cl`
**A:** 839 ng/mL
